Origin of values: patent US20090270359A1

- assayed.system: wild type androgen receptor (AR) (Homo sapiens)
- Sequence (P10275 whole entry): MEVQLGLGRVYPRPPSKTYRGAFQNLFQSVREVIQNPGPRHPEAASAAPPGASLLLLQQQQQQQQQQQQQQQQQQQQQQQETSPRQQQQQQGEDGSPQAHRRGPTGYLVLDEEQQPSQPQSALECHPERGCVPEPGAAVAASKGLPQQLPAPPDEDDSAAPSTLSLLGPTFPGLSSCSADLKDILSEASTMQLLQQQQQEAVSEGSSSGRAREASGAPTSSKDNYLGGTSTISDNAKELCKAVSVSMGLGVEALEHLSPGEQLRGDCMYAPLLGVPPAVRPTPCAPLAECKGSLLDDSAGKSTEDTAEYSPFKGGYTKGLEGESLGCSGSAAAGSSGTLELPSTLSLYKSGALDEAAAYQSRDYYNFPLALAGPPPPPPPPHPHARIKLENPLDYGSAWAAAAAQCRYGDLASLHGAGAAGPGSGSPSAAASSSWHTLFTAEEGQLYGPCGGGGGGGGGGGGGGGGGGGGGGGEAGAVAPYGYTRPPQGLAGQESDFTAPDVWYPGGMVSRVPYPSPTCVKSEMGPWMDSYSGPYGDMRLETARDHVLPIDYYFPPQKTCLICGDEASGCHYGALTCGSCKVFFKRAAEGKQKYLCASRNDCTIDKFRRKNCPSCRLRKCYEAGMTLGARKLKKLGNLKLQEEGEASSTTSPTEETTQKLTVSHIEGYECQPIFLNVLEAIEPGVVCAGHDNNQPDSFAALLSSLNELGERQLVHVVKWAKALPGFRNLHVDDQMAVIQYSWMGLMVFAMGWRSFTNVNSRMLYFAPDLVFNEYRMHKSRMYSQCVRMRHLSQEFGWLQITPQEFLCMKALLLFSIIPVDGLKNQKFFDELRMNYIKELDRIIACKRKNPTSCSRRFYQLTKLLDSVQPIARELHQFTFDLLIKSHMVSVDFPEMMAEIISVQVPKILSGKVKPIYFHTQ
- assay.comment: AR-binding inhibition test, wild type (radio-labeled Mibolerone displacement)
- applied.conditions: compound 1 μM; 3 nM radio-labeled Mibolerone; 4° C., 3 hours; dextran/charcoal method; read-out: Inhibitory rate (%) at 1 μM, wild type
- Description: To a solution of wild type or LNCaP type mutant androgen receptor (AR) was added 3 nM radio-labeled Mibolerone and final concentration 1 μM of the compound. The mixture was incubated at 4° C. for 3 hours, and B (Bound) and F (Free) Mibolerones were separated by the dextran/charcoal method. The label count of B was measured and the inhibition rate of the compound was calculated.
measured.endpoint: inhibition at 1 µM
Report the figure along with its unit, number first.

What value of inhibition at 1 µM has been recorded for this entry: CNC(=O)c1ccc(Cn2nc(C)c(-c3ccc(C#N)c(Cl)c3)c2C)cn1
49%

What value of inhibition at 1 µM has been recorded for this entry: Cc1nn(Cc2ccc(F)c(C(N)=O)c2)c(C)c1-c1ccc(C#N)c(Cl)c1
78%

What value of inhibition at 1 µM has been recorded for this entry: Cc1nn(Cc2ccc(C(=O)NCC(C)(C)O)cc2)c(C)c1-c1ccc(C#N)c(Cl)c1
58%

What value of inhibition at 1 µM has been recorded for this entry: Cc1nn(Cc2ccc(C(N)=O)nc2)c(C)c1-c1ccc(C#N)c(C(F)(F)F)c1
29%
